experiment: Acute toxicity study of glutaryl histamine; conditions: male, nonlinear white (outbred), mouse, in vivo, po
ATTRIBUTE MEASURED: LD50

Record summary for O=C(O)CCCC(=O)NCCc1c[nH]cn1 [glutaryl histamine] : reported LD50 = > 10000 mg/kg
